IC50 (nM), cell-based assay reference
- Test System: T1, human IL-17RA on HT1080 cells (human, UniProt Q96F46 33-866)
- T1 sequence: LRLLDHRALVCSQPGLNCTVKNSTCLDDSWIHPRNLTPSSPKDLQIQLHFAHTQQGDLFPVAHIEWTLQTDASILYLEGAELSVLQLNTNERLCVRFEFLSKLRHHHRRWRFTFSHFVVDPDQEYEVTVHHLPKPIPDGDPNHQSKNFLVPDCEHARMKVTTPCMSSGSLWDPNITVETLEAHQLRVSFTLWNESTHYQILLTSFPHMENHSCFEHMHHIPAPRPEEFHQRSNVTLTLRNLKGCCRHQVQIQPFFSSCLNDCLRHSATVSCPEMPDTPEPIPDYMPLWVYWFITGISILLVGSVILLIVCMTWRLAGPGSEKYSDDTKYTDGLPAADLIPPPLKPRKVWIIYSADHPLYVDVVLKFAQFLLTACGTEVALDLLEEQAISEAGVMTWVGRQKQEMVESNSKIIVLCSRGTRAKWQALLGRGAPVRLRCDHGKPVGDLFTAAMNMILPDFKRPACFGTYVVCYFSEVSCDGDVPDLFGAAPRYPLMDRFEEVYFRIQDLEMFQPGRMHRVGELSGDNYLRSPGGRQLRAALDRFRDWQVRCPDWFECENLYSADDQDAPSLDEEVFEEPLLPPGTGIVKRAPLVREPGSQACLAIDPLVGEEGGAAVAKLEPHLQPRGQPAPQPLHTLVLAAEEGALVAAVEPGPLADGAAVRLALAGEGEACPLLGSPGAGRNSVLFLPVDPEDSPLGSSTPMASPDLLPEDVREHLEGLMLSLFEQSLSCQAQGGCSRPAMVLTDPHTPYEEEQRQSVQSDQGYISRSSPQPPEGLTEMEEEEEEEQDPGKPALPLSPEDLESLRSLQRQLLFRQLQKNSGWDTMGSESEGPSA
- Experiment Description: cell-based or functional assay
Report the figure in nM without appending any unit label.

Recorded results for 3 binders are shown here.
[[record]]
binder = "VH clone 2.2 (VHH, Human VH single domain antibody, no light chain; Optimised variant of clone 2.1; also called VH 2.2) VHH: QVQLVQSGAEVKKPGASVKVSCKASGYPFTSYDINWVRQATGRSLEWMGWMNPTNGNTVYAQKFQDRVTMTRNTSISTAYMELSSLRSEDTAVYFCARGRRDDWKNNYWGQGTLVTVSS"
assay_metric = "IC50 (nM), cell-based assay"
unit_of_measure = "nM"
recorded_value = 165

[[record]]
binder = "VH clone 1.1 (VHH, Human VH single domain antibody, no light chain; Parent clone of family 1; also called VH 1.1) VHH: QVQLVESGGGLVQPGRSLRLSCAASGFTFDDYAMHWVRQAPGKGLEWVSGISWNSGRMDYADSVKGRFTISRDNAKKSLYLQMNSLRAEDTAMYYCAKEKGLGFCRGGSCSYFDYRGQGTLVTVSS"
assay_metric = "IC50 (nM), cell-based assay"
unit_of_measure = "nM"
recorded_value = 39

[[record]]
binder = "VH clone 2.1 (VHH, Human VH single domain antibody, no light chain; Parent clone of family 2; also called VH 2.1) VHH: QVQLVQSGAEVKKPGASVKVSCKASGYPFTSYDINWVRQATGQSLEWMGWMNPNSGDTVYAQKFQGRVTMTRNTSISTAYMELSSLRSEDTAVYFCARGRRDDWKNNYWGQGTLVTVSS"
assay_metric = "IC50 (nM), cell-based assay"
unit_of_measure = "nM"
recorded_value = 363


# ---- query binder ----
Problem: Any idea what IC50 (nM), cell-based assay was measured for VH clone 1.2 (VHH, Human VH single domain antibody, no light chain; Family 1; also called VH 1.2) VHH: EVQLVESGGGLVQPGRSLRLSCAASGFTFDDYAMHWVRQAPGKGLEWVSGISWNSGRMDYADSVKGRFTISRDNAKNSLYLQMNSLRAEDTALYYCAKEKGLGYCRGGSCSYFDYRGQGTLVTVSS ?
Solution: 141
